Listed below: inhibition values for each entry.
Test system: methionyl-tRNA synthetase (Trypanosoma brucei brucei)
Test: T. brucei MetRS inhibitors, primary screen, biochemical, luminescence (AID 624268);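 also: 0% = DMSO wells median and 100% = median of wells with control inhibitor compound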
Conditions: purified T. brucei MetRS, ATP depletion, Kinase-Glo luminescence; at 11.9 µM; stronger effect = higher value
Out of some 360,000 compounds screened, about 1,500 (0.42%) were called active. What follows is part of a selection rich in actives, with near analogues and random picks from the rest.
READOUT TYPE: inhibition (%)

{"COMPOUND": "O=C(NCc1cc(C(F)(F)F)cc(C(F)(F)F)c1)C1CC(c2cccc(F)c2)=NO1 (stereo unspecified)", "ASSAY VALUE": -0.13}
{"COMPOUND": "CN1CCN(S(=O)(=O)c2ccc3[nH]cc(C(=O)O)c(=O)c3c2)CC1", "ASSAY VALUE": 1.71}
{"COMPOUND": "Clc1ccc(-c2cc(C3CCNCC3)[nH]n2)c(Cl)c1", "ASSAY VALUE": 39.1}
{"COMPOUND": "CC1(c2cccc([N+](=O)[O-])c2)CC(C)(C)N(C(=O)c2ccccc2)c2ccccc21 (stereo unspecified)", "ASSAY VALUE": 0.07}
{"COMPOUND": "CCN(CC(=O)NCCc1ccccc1)S(=O)(=O)c1ccccc1", "ASSAY VALUE": 1.61}
{"COMPOUND": "O=C(c1cccs1)C1C(c2ccc(Br)cc2)NC(=S)NC1(O)C(F)(F)F (stereo unspecified)", "ASSAY VALUE": 0.24}
{"COMPOUND": "Nc1ccccc1Sc1cc(Cl)nnc1Cl", "ASSAY VALUE": 1.75}
{"COMPOUND": "Cc1ccc(S(=O)(=O)c2c[nH]c3ccc(Cl)cc3c2=O)cc1", "ASSAY VALUE": 40.4}
{"COMPOUND": "CCSc1nsc(NC(=O)Nc2cccc(C(C)=O)c2)n1", "ASSAY VALUE": -0.36}
{"COMPOUND": "COc1ccc(NC(=O)CSc2nnc(Cc3ccccc3)c(=O)n2N)cc1", "ASSAY VALUE": -0.2}
{"COMPOUND": "O=C(Nc1cccc(Cl)c1)Nc1ccccc1NS(=O)(=O)c1cccs1", "ASSAY VALUE": -0.14}
{"COMPOUND": "O=S(=O)(NCCc1ccc(Cl)cc1)c1cccs1", "ASSAY VALUE": 0.22}
{"COMPOUND": "Cc1ccnc2nc(C(=O)OCC(=O)N(CC(C)C)CC(C)C)nn12", "ASSAY VALUE": -0.19}
{"COMPOUND": "COc1cccc(NC(=O)N2CCC(NC(=O)C(Cc3cccc(C)c3)NC(C)=O)CC2)c1 (stereo unspecified)", "ASSAY VALUE": -0.33}
{"COMPOUND": "O=S(=O)(NCc1ccc(Cl)cc1Cl)c1cccs1", "ASSAY VALUE": 18.5}
{"COMPOUND": "CCCNC(=O)C1(C)CCN(C(=O)c2ccc(F)cc2Cl)C1 (stereo unspecified)", "ASSAY VALUE": -0.42}

---

Listed below: inhibition values for each entry.
Test system: methionyl-tRNA synthetase (Trypanosoma brucei brucei)
Assay: T. brucei MetRS inhibitors, primary screen, biochemical, luminescence (AID 624268);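 also: 0% = DMSO wells median and 100% = median of wells with control inhibitor compound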
Conditions: purified T. brucei MetRS, ATP depletion, Kinase-Glo luminescence; at 11.9 µM; stronger effect = higher value
Screen size: about 360,000 compounds; about 1,500 (0.42%) were called active. The sample holds actives, similar compounds and a random draw of the others, so the mix is not that of the screen.

{"COMPOUND": "Cc1cc(C(C)(C)C)cc(S(=O)(=O)Nc2ccc(C(=O)O)cc2)c1C", "inhibition (%)": 0.3}
{"COMPOUND": "COc1ccc(NC(=O)C(NC(C)=O)C(=O)NCc2ccccc2Cl)cc1 (centres undefined)", "inhibition (%)": 7.6}
{"COMPOUND": "COc1ccc(CNC(=O)C(C)NCc2ccccc2Cl)cc1 (centres undefined)", "inhibition (%)": -0.92}
{"COMPOUND": "Cc1ccnc(NC(=O)Cn2ccc([N+](=O)[O-])n2)c1", "inhibition (%)": 1.25}

---

Listed below: inhibition values for each entry.
Test system: methionyl-tRNA synthetase (Trypanosoma brucei brucei)
Experiment: T. brucei MetRS inhibitors, primary screen, biochemical, luminescence (AID 624268);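 also: 0% = DMSO wells median and 100% = median of wells with control inhibitor compound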
Conditions: purified T. brucei MetRS, ATP depletion, Kinase-Glo luminescence; at 11.9 µM; stronger effect = higher value
Out of some 360,000 compounds screened, about 1,500 (0.42%) were called active. For the sample, actives were picked, then their nearest neighbours and some compounds at random.

{"GIVEN SMILES": "O=C(Cn1c2[n+](c3ccc(C(F)(F)F)cc31)CCCCC2)Nc1c(F)cccc1F", "TARGET UNDER TEST": "methionyl-tRNA synthetase (Trypanosoma brucei brucei)", "inhibition": "17.2% (active)"}
{"GIVEN SMILES": "Cc1c(CN2CCC(CO)(CCOc3ccccc3)CC2)[nH]c2ccc(Cl)cc12", "TARGET UNDER TEST": "methionyl-tRNA synthetase (Trypanosoma brucei brucei)", "inhibition": "8.27% (active)"}
{"GIVEN SMILES": "CN(CC(=O)NCCc1ccc(S(N)(=O)=O)cc1)CC(=O)Nc1ccc(Cl)cc1", "TARGET UNDER TEST": "methionyl-tRNA synthetase (Trypanosoma brucei brucei)", "inhibition": "-0.04% (inactive)"}
{"GIVEN SMILES": "C/C(=N/NC(=O)c1cc(Cl)ccc1O)C12CC3CC(CC(C3)C1)C2", "TARGET UNDER TEST": "methionyl-tRNA synthetase (Trypanosoma brucei brucei)", "inhibition": "-0.58% (inactive)"}
{"GIVEN SMILES": "O=C(CCC1CCCCC1)Nc1cc(C(F)(F)F)ccc1N1CCOCC1", "TARGET UNDER TEST": "methionyl-tRNA synthetase (Trypanosoma brucei brucei)", "inhibition": "0.04% (inactive)"}
{"GIVEN SMILES": "CCN(CC(=O)Nc1c(F)cccc1F)C(=O)C1CCC1", "TARGET UNDER TEST": "methionyl-tRNA synthetase (Trypanosoma brucei brucei)", "inhibition": "-0.09% (inactive)"}
{"GIVEN SMILES": "CC/C(O)=C1\\C(=O)CC(C)(C)CC1=NCCc1nc2ccccc2[nH]1", "TARGET UNDER TEST": "methionyl-tRNA synthetase (Trypanosoma brucei brucei)", "inhibition": "0.39% (inactive)"}
{"GIVEN SMILES": "CC(=N\\NC(=O)c1cc(Br)ccc1O)/C(=N/O)C(=O)Nc1ccccc1", "TARGET UNDER TEST": "methionyl-tRNA synthetase (Trypanosoma brucei brucei)", "inhibition": "7.43% (active)"}
{"GIVEN SMILES": "CCCn1nc(C(=O)NNC(=O)CSCC(=O)Nc2cc(C)on2)c2ccccc2c1=O", "TARGET UNDER TEST": "methionyl-tRNA synthetase (Trypanosoma brucei brucei)", "inhibition": "-0.27% (inactive)"}

---

Listed below: inhibition values for each entry.
Test system: methionyl-tRNA synthetase (Trypanosoma brucei brucei)
Assay: T. brucei MetRS inhibitors, primary screen, biochemical, luminescence (AID 624268);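 also: 0% = DMSO wells median and 100% = median of wells with control inhibitor compound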
Conditions: purified T. brucei MetRS, ATP depletion, Kinase-Glo luminescence; at 11.9 µM; stronger effect = higher value
Among all 360,000 compounds or so, about 1,500 (0.42%) were called active. For the sample, actives were picked, then their nearest neighbours and some compounds at random.

{"COMPOUND": "O=CN1CCN(C2CC(=O)N(c3ccc4c(c3)OCO4)C2=O)CC1 (stereo unspecified)", "SCALE UNIT": "%", "inhibition": -2.06}
{"COMPOUND": "Cc1csc(=O)n1CCC(=O)OCC(=O)NNC(=O)c1ccc(Br)cc1", "SCALE UNIT": "%", "inhibition": -0.33}
{"COMPOUND": "CCCS(=O)(=O)NC(=O)C1(C)CCCN(C(=O)c2ccnc(Cl)c2)C1 (stereo unspecified)", "SCALE UNIT": "%", "inhibition": -0.05}
{"COMPOUND": "NC(=O)c1ccc(-c2csnn2)cc1", "SCALE UNIT": "%", "inhibition": -0.49}
{"COMPOUND": "CSCCC(NC(=O)c1cc([N+](=O)[O-])cc([N+](=O)[O-])c1)c1nc2ccccc2[nH]1 (stereo unspecified)", "SCALE UNIT": "%", "inhibition": 3.68}
{"COMPOUND": "COc1cccc(C(CC(=O)NCCN2CCOCC2)NS(=O)(=O)c2ccc(C)cc2)c1OC (stereo unspecified)", "SCALE UNIT": "%", "inhibition": -0.3}
{"COMPOUND": "O=C1COc2ccc(C(=O)COC(=O)C3CC(O)CN3S(=O)(=O)c3ccc(Cl)cc3)cc2N1 (stereo unspecified)", "SCALE UNIT": "%", "inhibition": 0.64}
{"COMPOUND": "O=C(Cn1c(NCCO)nc2ccccc21)c1ccc(Cl)cc1Cl", "SCALE UNIT": "%", "inhibition": 8.55}
{"COMPOUND": "O=C(Cc1ccc(S(=O)(=O)N2CCOCC2)s1)Nc1ccc(Br)c(C(F)(F)F)c1", "SCALE UNIT": "%", "inhibition": 9.17}
{"COMPOUND": "O=C(Nc1cccc([N+](=O)[O-])c1)N1CCc2ccccc2C1", "SCALE UNIT": "%", "inhibition": 7.11}
{"COMPOUND": "COc1ccc(CCn2ccc(O)c(Cc3ccc(Cl)cc3Cl)c2=O)cc1OC", "SCALE UNIT": "%", "inhibition": 6.37}
{"COMPOUND": "CC(C)(CNC(=O)c1cc(=O)[nH]c2ccccc12)N1CCOCC1", "SCALE UNIT": "%", "inhibition": 0.28}
{"COMPOUND": "CC1(C)CC(=O)C=C(c2cccc3c2Oc2ccccc2S3)C1", "SCALE UNIT": "%", "inhibition": -0.11}
{"COMPOUND": "Cc1ccc(OCCOCCOc2ccc(Br)cc2/C=N\\NC(=O)c2ccncc2)cc1", "SCALE UNIT": "%", "inhibition": 0.03}
{"COMPOUND": "O=C(CSCc1ccc([N+](=O)[O-])cc1)NCCSCc1ccccc1", "SCALE UNIT": "%", "inhibition": -0.21}
{"COMPOUND": "COc1ccc(S(=O)(=O)N2CCOC2CNC(=O)C(=O)NCc2ccncc2)cc1C (stereo unspecified)", "SCALE UNIT": "%", "inhibition": -0.16}
{"COMPOUND": "CCC(C(=O)Nc1ccc(C(C)C)cc1)c1ccccc1 (stereo unspecified)", "SCALE UNIT": "%", "inhibition": 0.33}
{"COMPOUND": "O=C(CSCC(=O)Nc1cccc([N+](=O)[O-])c1)Nc1ccccc1", "SCALE UNIT": "%", "inhibition": 8.16}
{"COMPOUND": "COc1ccc(OC)c(NC(=O)Cn2c(=O)oc3ccccc32)c1", "SCALE UNIT": "%", "inhibition": -0.7}
{"COMPOUND": "O=C(N[C@H]1CC[C@H](CC(=O)N2CCCCC2)O[C@@H]1CO)c1cccc(F)c1", "SCALE UNIT": "%", "inhibition": -0.31}
{"COMPOUND": "Cc1ccc(N2C(=O)CC(NCc3ccc4c(c3)OCO4)C2=O)cc1Cl (stereo unspecified)", "SCALE UNIT": "%", "inhibition": 12.1}
{"COMPOUND": "O=C(/C=C/c1cccs1)c1cc(Cl)ccc1OC(=O)N1CCOCC1", "SCALE UNIT": "%", "inhibition": -0.94}
{"COMPOUND": "O=C(O)CCn1c(O)c(C=C2N=c3ccccc3=N2)sc1=S", "SCALE UNIT": "%", "inhibition": 7.5}
{"COMPOUND": "CCOC(=O)c1sc(NC(=O)CSc2nc(O)c(Cc3ccccc3)c(=O)[nH]2)nc1C", "SCALE UNIT": "%", "inhibition": -1.03}
{"COMPOUND": "CC(C)C1C2=C(CC(C)(C)CC2=O)ON1c1ccccc1 (stereo unspecified)", "SCALE UNIT": "%", "inhibition": 0.41}
{"COMPOUND": "O=C(NCCN1CCOCC1)c1ccccc1N1C(=O)[C@@H]2Cc3c([nH]c4ccccc34)C(c3cccc(Cl)c3)N2C1=O (stereo partly specified)", "SCALE UNIT": "%", "inhibition": 11.4}
